assay: Binding affinity to Cu2+ using CuCl2 at 30 uM by isothermal titration calorimetry analysis
pKd: −log10 of the molar value.
readout.kind: pKd

{"molecule": "COCCN(CC1CCCN(C2Cc3ccccc3C2)C1)C(=O)c1cc([N+](=O)[O-])c2cccnc2c1O (stereo unspecified)", "quantitative.readout": 6.60}

---

assay: Metal chelating activity of the compound assessed as Fe2+ complex formation at 30 uM after 10 mins by UV-vis spectrometry; assay type: physicochemical

{"compound": "O=C(NCC1CCCN(c2nc3ccccc3o2)C1)c1cc([N+](=O)[O-])c2cccnc2c1O (stereo not drawn)", "Activity": "Active"}
{"compound": "O=C(NCC1CCCN(C2Cc3ccccc3C2)C1)c1cc([N+](=O)[O-])c2cccnc2c1O (stereo not drawn)", "Activity": "Active"}
{"compound": "COCCN(CC1CCCN(C2Cc3ccccc3C2)C1)C(=O)c1cc([N+](=O)[O-])c2cccnc2c1O (stereo not drawn)", "Activity": "Active"}

---

target: Amyloid-beta precursor protein (Homo sapiens) (UniProt P05067); assay: Inhibition of human recombinant amyloid beta (1 to 42) self aggregation at 10 uM after 12 hrs by dot-blot assay
Sequence (P05067 whole entry): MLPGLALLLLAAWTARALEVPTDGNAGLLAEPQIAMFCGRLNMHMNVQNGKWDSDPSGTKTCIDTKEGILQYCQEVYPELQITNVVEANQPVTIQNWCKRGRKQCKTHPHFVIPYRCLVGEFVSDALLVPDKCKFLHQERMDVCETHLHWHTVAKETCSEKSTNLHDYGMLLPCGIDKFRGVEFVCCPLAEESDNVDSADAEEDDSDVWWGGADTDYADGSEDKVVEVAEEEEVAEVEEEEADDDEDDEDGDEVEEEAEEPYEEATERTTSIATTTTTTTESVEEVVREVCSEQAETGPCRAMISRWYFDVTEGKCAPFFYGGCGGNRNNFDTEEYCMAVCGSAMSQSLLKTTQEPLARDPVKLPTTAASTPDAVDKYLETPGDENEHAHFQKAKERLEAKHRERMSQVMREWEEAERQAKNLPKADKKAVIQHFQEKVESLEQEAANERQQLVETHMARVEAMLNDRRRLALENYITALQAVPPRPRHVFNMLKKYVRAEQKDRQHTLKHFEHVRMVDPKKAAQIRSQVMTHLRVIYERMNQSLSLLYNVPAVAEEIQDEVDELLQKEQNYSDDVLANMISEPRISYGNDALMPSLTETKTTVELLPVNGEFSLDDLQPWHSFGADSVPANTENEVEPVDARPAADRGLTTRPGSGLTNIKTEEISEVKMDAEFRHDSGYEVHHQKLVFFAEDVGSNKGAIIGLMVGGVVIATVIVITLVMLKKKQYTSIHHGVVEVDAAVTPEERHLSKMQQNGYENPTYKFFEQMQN
readout.kind: inhibition (%)

{"compound": "COCCN(CC1CCN(Cc2nc3ccccc3o2)CC1)C(=O)c1cc([N+](=O)[O-])c2cccnc2c1O", "units.symbol": "%", "quantitative.readout": 34.9}
{"compound": "O=C(NCC1CCCN(c2nc3ccccc3o2)C1)c1cc([N+](=O)[O-])c2cccnc2c1O (configuration not stated)", "units.symbol": "%", "quantitative.readout": 35.5}
{"compound": "COCCN(CC1CCCN(C2Cc3ccccc3C2)C1)C(=O)c1cc([N+](=O)[O-])c2cccnc2c1O (configuration not stated)", "units.symbol": "%", "quantitative.readout": 20.1}
{"compound": "O=C(NCC1CCCN(c2nc3ccccc3s2)C1)c1cc([N+](=O)[O-])c2cccnc2c1O (configuration not stated)", "units.symbol": "%", "quantitative.readout": 33.3}
{"compound": "O=C(NCC1CCCN(C2Cc3ccccc3C2)C1)c1cc([N+](=O)[O-])c2cccnc2c1O (configuration not stated)", "units.symbol": "%", "quantitative.readout": 28.7}
{"compound": "COCCN(CC1CCN(Cc2nc3ccccc3s2)CC1)C(=O)c1cc([N+](=O)[O-])c2cccnc2c1O", "units.symbol": "%", "quantitative.readout": 44.2}
{"compound": "O=C(NCC1CCCN(Cc2nc3ccccc3s2)C1)c1cc([N+](=O)[O-])c2cccnc2c1O (configuration not stated)", "units.symbol": "%", "quantitative.readout": 53.4}

---

test: Antioxidant activity assessed as DPPH radical scavenging activity; format: physicochemical
pEC50: −log10 of the molar value.
Param threshold (3) applies to pEC50; output Satisfied when value >= threshold, Not satisfied when value < threshold.

{"molecule": "COCCN(CC1CCN(Cc2nc3ccccc3o2)CC1)C(=O)c1cc([N+](=O)[O-])c2cccnc2c1O", "cat": "Satisfied"}
{"molecule": "O=C(NCC1CCCN(c2nc3ccccc3s2)C1)c1cc([N+](=O)[O-])c2cccnc2c1O (stereo not drawn)", "cat": "Not satisfied"}
{"molecule": "COCCN(CC1CCN(Cc2nc3ccccc3s2)CC1)C(=O)c1cc([N+](=O)[O-])c2cccnc2c1O", "cat": "Not satisfied"}
{"molecule": "O=c1c(O)c(-c2ccc(O)c(O)c2)oc2cc(O)cc(O)c12", "cat": "Satisfied"}
{"molecule": "COCCN(CC1CCCN(C2Cc3ccccc3C2)C1)C(=O)c1cc([N+](=O)[O-])c2cccnc2c1O (stereo not drawn)", "cat": "Not satisfied"}
{"molecule": "O=C(NCC1CCCN(Cc2nc3ccccc3s2)C1)c1cc([N+](=O)[O-])c2cccnc2c1O (stereo not drawn)", "cat": "Not satisfied"}
{"molecule": "O=C(NCC1CCCN(C2Cc3ccccc3C2)C1)c1cc([N+](=O)[O-])c2cccnc2c1O (stereo not drawn)", "cat": "Satisfied"}

---

molecular target: Cholinesterase (Homo sapiens)
Sequence (P06276 whole entry): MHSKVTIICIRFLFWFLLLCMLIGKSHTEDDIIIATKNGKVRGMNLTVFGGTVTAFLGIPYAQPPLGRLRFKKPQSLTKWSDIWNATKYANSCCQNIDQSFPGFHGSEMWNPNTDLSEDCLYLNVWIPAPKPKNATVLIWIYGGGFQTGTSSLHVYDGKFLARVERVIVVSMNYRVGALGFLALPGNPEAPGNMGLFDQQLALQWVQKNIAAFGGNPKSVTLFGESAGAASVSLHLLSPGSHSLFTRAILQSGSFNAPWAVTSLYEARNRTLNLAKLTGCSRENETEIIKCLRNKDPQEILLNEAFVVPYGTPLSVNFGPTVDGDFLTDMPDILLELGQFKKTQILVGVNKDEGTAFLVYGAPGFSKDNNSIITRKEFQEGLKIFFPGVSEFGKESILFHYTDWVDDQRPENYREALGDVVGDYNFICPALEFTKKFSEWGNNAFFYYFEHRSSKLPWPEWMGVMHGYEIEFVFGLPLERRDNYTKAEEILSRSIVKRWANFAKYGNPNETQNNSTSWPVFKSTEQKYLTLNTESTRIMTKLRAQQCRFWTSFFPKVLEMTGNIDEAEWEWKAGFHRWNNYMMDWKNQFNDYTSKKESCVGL

{"molecule": "COCCN(CC1CCN(Cc2nc3ccccc3s2)CC1)C(=O)c1cc([N+](=O)[O-])c2cccnc2c1O", "units.symbol": "µM", "IC50": 2.14}
{"molecule": "COCCN(CC1CCCN(C2Cc3ccccc3C2)C1)C(=O)c1cc([N+](=O)[O-])c2cccnc2c1O (configuration not stated)", "units.symbol": "µM", "IC50": 0.215}

---

target: UniProt P06276; assay: Inhibition of human recombinant BChE using butyrylthiocholine iodide as substrate assessed as residual activity at 30 uM after 5 mins by Ellman's method relative to control
Friendly reminder: Ratio below 0.1 is Met, at or above is Not met.

{"compound": "O=C(NCC1CCCN(c2nc3ccccc3o2)C1)c1cc([N+](=O)[O-])c2cccnc2c1O (stereo unspecified)", "cat": "Not met"}
{"compound": "COCCN(CC1CCN(Cc2nc3ccccc3o2)CC1)C(=O)c1cc([N+](=O)[O-])c2cccnc2c1O", "cat": "Not met"}
{"compound": "COCCN(CC1CCCN(C2Cc3ccccc3C2)C1)C(=O)c1cc([N+](=O)[O-])c2cccnc2c1O (stereo unspecified)", "cat": "Met"}
{"compound": "COCCN(CC1CCN(Cc2nc3ccccc3s2)CC1)C(=O)c1cc([N+](=O)[O-])c2cccnc2c1O", "cat": "Not met"}
{"compound": "O=C(NCC1CCCN(Cc2nc3ccccc3s2)C1)c1cc([N+](=O)[O-])c2cccnc2c1O (stereo unspecified)", "cat": "Not met"}
{"compound": "O=C(NCC1CCCN(C2Cc3ccccc3C2)C1)c1cc([N+](=O)[O-])c2cccnc2c1O (stereo unspecified)", "cat": "Not met"}
